- System: Drosophila melanogaster Or83b olfactory receptor, SEQ ID NO: 6
- experiment description: Interaction of plant essential oils with Or83b receptor binding site (3H-tyramine)
- details: membranes, FIGS. 16, 18-21
observed property: interaction with the olfactory receptor

Recorded interaction with the olfactory receptor, per entry:
Cc1ccc(C(C)C)cc1 [p-cymene] = interact
CC1=CCC(C(C)(C)O)CC1 (stereo not drawn) [α-terpineol] = interact
C/C=C/c1ccc(OC)cc1 [t-anethole] = interact
C=CC(C)(O)CCC=C(C)C (stereo not drawn) [linalool] = interact
CCOC(=O)c1ccccc1C(=O)OCC [diethyl phthalate] = interact

Record CC(C)[C@]12CC(=O)[C@H](C)[C@H]1C2 [α-thujone] . Reported interaction with the olfactory receptor: interact

Record C=C(C)[C@H]1CC=C(C)CC1 [d-limonene] . Reported interaction with the olfactory receptor: interact

Record OCc1ccc2c(c1)OCO2 [piperonyl alcohol] . Reported interaction with the olfactory receptor: interact

Record C=CC(C)(CCC=C(C)C)OC(=O)c1ccccc1N (stereo not drawn) [linalyl anthranilate] . Reported interaction with the olfactory receptor: interact

Record O=Cc1ccc2c(c1)OCO2 [piperonal] . Reported interaction with the olfactory receptor: interact

Record Cc1ccc(C(C)C)cc1O [carvacrol] . Reported interaction with the olfactory receptor: interact

Record C=C1CCC2(C(C)C)CC12 (stereo not drawn) [sabinene] . Reported interaction with the olfactory receptor: interact

These data points were gathered from patent US20080075796A1.
